Target: T1, adrenomedullin receptor (receptor binding assay)
T1 chain 1: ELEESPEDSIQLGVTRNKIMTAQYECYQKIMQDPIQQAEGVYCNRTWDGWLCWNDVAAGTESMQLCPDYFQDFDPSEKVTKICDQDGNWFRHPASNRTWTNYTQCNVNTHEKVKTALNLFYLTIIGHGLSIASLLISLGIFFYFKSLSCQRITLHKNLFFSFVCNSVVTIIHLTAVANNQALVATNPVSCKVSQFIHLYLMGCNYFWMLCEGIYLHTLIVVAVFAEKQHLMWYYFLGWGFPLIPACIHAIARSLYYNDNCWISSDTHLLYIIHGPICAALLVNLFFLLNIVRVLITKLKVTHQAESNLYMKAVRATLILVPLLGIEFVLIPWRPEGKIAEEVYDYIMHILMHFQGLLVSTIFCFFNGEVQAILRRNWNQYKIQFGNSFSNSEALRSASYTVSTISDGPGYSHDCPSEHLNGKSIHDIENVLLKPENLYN
T1 chain 2: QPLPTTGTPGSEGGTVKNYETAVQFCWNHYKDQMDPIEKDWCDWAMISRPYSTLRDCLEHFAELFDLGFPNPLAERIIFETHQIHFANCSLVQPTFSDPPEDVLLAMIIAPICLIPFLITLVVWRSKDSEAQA
Assay: adrenomedullin receptor binding assay, method not described
Ends that are not written are not given here.
Exercise: for every item that follows, state its recorded IC50.
Use nM as the unit, but write only the number.

q: For the binder CVLGTCQVQNLSHRLWQLRQESAPVEPSSPHSY-NH2 (ends and bridges not checked) [AFP-6 analog SEQ ID NO: 19] , what IC50 is on record?
a: 1000

q: Next binder up: TQAQLLRVGCVLGTCQVQNLSHRLWQLDSAPVDPSSPHSY-NH2 (ends and bridges not checked) [AFP-6 analog SEQ ID NO: 17]
a: 304

q: Next binder up: CVLGTCQVQNLSHRLWQLMGPAGRQDSAPVDPSSPHSY-NH2 (ends and bridges not checked) [AFP-6 analog SEQ ID NO: 12]
a: 18

q: Next binder up: VCNTATCQVQNLSHRLWQLRQDSAPVDPSSPHSY-NH2 (ends and bridges not checked) [AFP-6 analog SEQ ID NO: 30]
a: 1000

q: Next binder up: GCGNLSTCQVQNLSHRLWQLRQDSAPVEPSSPHSY-NH2 (ends and bridges not checked) [AFP-6 analog SEQ ID NO: 39]
a: 1000

q: Next binder up: TQAQLLRVGCVLGTCQVQNLSHRLWQLMGPAGRQESAPVEPSSPHSY-NH2 (ends and bridges not checked) [AFP-6 analog SEQ ID NO: 32]
a: 7.1

q: Next binder up: VQNLSHRLWQLMGPAGRQDSAPVDPSSPHSY-NH2 [AFP-6 analog SEQ ID NO: 14]
a: 59

q: Next binder up: VGCVLGTCQVQNLSHRLWQLMGPAGRQDSAPVEPSSPHSY-NH2 (ends and bridges not checked) [AFP-6 analog SEQ ID NO: 35]
a: 37

q: Next binder up: GMVLGTMQVQNLSHRLWQLMGPAGRQDSAPVDPSSPHSY-NH2 [AFP-6 analog SEQ ID NO: 26]
a: 37

q: Next binder up: TQAQLLRVGCNTATCQVQNLSHRLWQLMGPAGRQDSAPVDPSSPHSY-NH2 (ends and bridges not checked) [AFP-6 analog SEQ ID NO: 21]
a: 47

q: Next binder up: VGCGNLSTCQVQNLSHRLWQLRQDSAPVDPSSPHSY-NH2 (ends and bridges not checked) [AFP-6 analog SEQ ID NO: 29]
a: 1000

q: Next binder up: TQAQLLRVGCVLGTCQVQNLSHRLWQLRQDSAPVDPSSPHSY-NH2 (ends and bridges not checked) [AFP-6 analog SEQ ID NO: 16]
a: 1000

q: Next binder up: TQAQLLRVGMVLGTMQVQNLSHRLWQLMGPAGRQDSAPVDPSSPHSY-NH2 [AFP-6 analog SEQ ID NO: 25]
a: 120

Ref: patent US20080207501A1
